- targetOrSystem: wild-type Menin protein (Menin-WT) (Homo sapiens, UniProt O00255)
- Sequence (O00255 1-615 isoform O00255-1): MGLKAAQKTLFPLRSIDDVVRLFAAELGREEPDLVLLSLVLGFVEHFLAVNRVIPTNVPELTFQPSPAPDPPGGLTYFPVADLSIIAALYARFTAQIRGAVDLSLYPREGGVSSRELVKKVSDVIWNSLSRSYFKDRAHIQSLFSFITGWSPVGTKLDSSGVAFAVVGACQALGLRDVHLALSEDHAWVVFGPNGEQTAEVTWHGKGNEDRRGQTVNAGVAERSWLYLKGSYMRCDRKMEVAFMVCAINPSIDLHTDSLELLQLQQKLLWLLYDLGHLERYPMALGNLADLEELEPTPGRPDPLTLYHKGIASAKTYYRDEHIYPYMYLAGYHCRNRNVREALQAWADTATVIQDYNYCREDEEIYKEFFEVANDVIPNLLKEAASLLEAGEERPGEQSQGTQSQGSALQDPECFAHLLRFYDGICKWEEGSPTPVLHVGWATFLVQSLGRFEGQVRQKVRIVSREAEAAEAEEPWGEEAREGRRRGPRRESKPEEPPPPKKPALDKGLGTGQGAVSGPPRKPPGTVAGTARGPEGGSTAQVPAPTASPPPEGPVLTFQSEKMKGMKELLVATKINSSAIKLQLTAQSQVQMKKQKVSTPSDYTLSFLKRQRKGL
parameterMeasured: IC50

Suppose we examine the compound CCN(C(=O)c1cc(F)ccc1Oc1cncnc1N1CC2(CCN(C[C@H]3CC[C@H](NS(=O)(=O)CC)CC3)CC2)C1)C(C)C ; what IC50 value has been reported? 17.6 nM

IC50 lookup needed for CCN(C(=O)c1cc(F)ccc1N1CCN([C@@H]2CCN([C@H](CCCN(C)CCOC)C(C)C)C2)c2ncncc21)C(C)C , thanks. 13 nM

====

- procedureDetails: Pharmacokinetics in mice after single IV and PO administration (LC-MS/MS)
- Assay type: in vivo, male ICR mice
- conditionSummary: mouse, in vivo; ICR mice, IV 3 mg/kg; read-out: IV Cmax
- Protocol: • 1. Objective: This study aimed to characterize the pharmacokinetic properties of selected compounds from the examples of the present invention in male ICR mice following single intravenous (IV) injection and oral (PO) administration using LC-MS/MS methodology. • 2. Experimental Materials: Test compounds were prepared according to the examples of the present invention; male ICR mice were obtained from Shanghai Jihui Laboratory Animal Breeding Co., Ltd. (License No. SCXK(Shanghai)2022-0009). • 3. […]
parameterMeasured: Cmax (ng/mL)
Unit ng/mL implied. Number only.

Consider the compound CCN(C(=O)c1cc(F)ccc1N1CCN([C@@H]2CCN([C@H](CCCN(C)CCOC)C(C)C)C2)c2ncncc21)C(C)C and give its measured Cmax. 418

====

For each entry below, report its AUC(0-t) value.
- procedureDetails: Pharmacokinetics in rats after single IV and PO administration (LC-MS/MS)
- Format: in vivo, male SD rats
- conditionSummary: male, rat, plasma; SD rats, PO; comparative compounds, dose 10 mg/kg in 0.5% MC according to Table 3; read-out: PO AUC(0-t)
Provide the reading as a plain figure in ng·h/mL.

I'd like to know its AUC(0-t). The compound in question is CCN(C(=O)c1cc(F)ccc1N1CCN(C2CCN(Cc3ccc4c(cc(C#N)n4C[C@@H]4CCNC4)c3C)CC2)c2ncncc21)C(C)C 119

Can you look up the measured AUC(0-t) of CCN(C(=O)c1cc(F)ccc1N1CCN(C2CCN(Cc3ccc4[nH]c(C#N)cc4c3C)CC2)c2ncncc21)C(C)C for me? 119

# lookup: AUC(0-t) of CCN(C(=O)c1cc(F)ccc1N1CCN(C2CCN(Cc3ccc4c(cc(C#N)n4CC4CNC4)c3C)CC2)c2ncncc21)C(C)C 228

Fill in: AUC(0-t) of CCN(C(=O)c1cc(F)ccc1N1CCN(C2CCN(Cc3ccc4c(cc(C#N)n4CC4COC4)c3C)CC2)c2ncncc21)C(C)C is ___ 83.8
